test system: K4 kissing-loop RNA reporter; experiment: apparent KD of K4 kissing-loop reporter; higher = weaker reporter binding; details: Eterna round: R107; input ligand: none;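 also: bound reporter read as fluorescence of individual clusters on recovered sequencing chips by microscopy, with normalized cluster intensities fitted with a binding model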
# apparent KD of K4 kissing-loop reporter values compiled below
Give just the number in nM; leave the unit off.

Example results:
| sequence.string | unit.of.measurement | apparent KD of K4 kissing-loop reporter |
| --- | --- | --- |
| CCUUCUCAUUUCCGUUAUCAUUGCCUUAGGAAGGAUAUCAUUAUUUUGAGAAGGUCCGUGGUCUAUUUUCCGAGUGAUGUUUGGU [theeternabot_exclusion_KL_FMN_A_45] | nM | 311 |
| AUGUGGAGCGACGUUUCGGGAUAUCGGGAAGGAGCGCUGAUAACGGCAGGUAGGUCGCCUGGUCCAGUGAUGUUGGGCAUGCAUU [Exclusion Arg A GF 24] | nM | 270 |
| UGUCAUGGAAACAUGAACGUUAAAAUAAAUCGAGGACCGGUACGGCCGCCACUCGUAUAGCGGUCAGUGAUGUUGACUGUAGUAA [KL-SSTryp-A form2 sub8] | nM | 108 |

Query block: For the sequence CUCGUGGGUUUGAGAGGGUUUGUGGGAAGUGAGGAUAUUUAGGGAGAAAGAAGGCACUAUAAAAUAUAGUGAUGUUAUAUAAGGG [SSFMNA.L] , give its reported apparent KD of K4 kissing-loop reporter.
Result block: 325

Query block: For the sequence AAGUGUGGUCCAGUGAUGUUGGAACCAGAUACCAGCGACAUAGUGCGCCCUUGGCAGCUGGCACACAUGCGCUGCACGACUAGAA [Riusveis] , give its reported apparent KD of K4 kissing-loop reporter.
Result block: 207

Query block: For the sequence AGACGAGAUGAAGGAUAUGCGGACAAAGUGAUGUUUUGUCCGAAAGUAGGCAGUAAUAUCGAAAAUGCAGAAGGUCAAGAACAUA [theeternabot_exclusion_KL_FMN_B_36] , give its reported apparent KD of K4 kissing-loop reporter.
Result block: 143
